The following compounds are shown together with reported % Inhibition of force (RSI strips) values.
test system: rat small intestine tissue; test: Relaxation of rat small intestine (ileum) strips (nifedipine-sensitive force); details: integral of nifedipine-sensitive force, 30 min post-compound
Expressed in %, but write only the number.

Answered cases to consult:
structureString	% Inhibition of force (RSI strips) (%)
Nc1ccc(Sc2c(-c3cc(Cl)ccc3O)c3cc(C(F)(F)F)ccc3[nH]c2=O)cc1	10
O=c1[nH]c2ccc(C(F)(F)F)cc2c(-c2cc(Cl)ccc2O)c1Sc1ccncc1	17
Nc1nnc(Sc2c(-c3cc(Cl)ccc3O)c3cc(C(F)(F)F)ccc3[nH]c2=O)s1	40

Now turn to the next compound.
Task item: Could you share what % Inhibition of force (RSI strips) was measured for "O=c1[nH]c2ccc(C(F)(F)F)cc2c(-c2cc(Cl)ccc2O)c1Sc1ccc(O)cc1" , tested on rat small intestine tissue?
Reply: 21

* * *

system: rabbit corpus cavernosum tissue; experiment: Relaxation of rabbit corpus cavernosum strips (phenylephrine-induced force); settings: Oryctolagus cuniculus, inhibition of phenylephrine (3 μM)-induced force compared to vehicle control, read-out: % Inhibition of force (RCC strips)
# binarize inhibition: threshold 30% inclusive, high side Fulfilled, low side Not fulfilled

Solved entries:
structureString	classification
Nc1nnc(Sc2c(-c3cc(Cl)ccc3O)c3cc(C(F)(F)F)ccc3[nH]c2=O)s1	Fulfilled
O=c1[nH]c2ccc(C(F)(F)F)cc2c(-c2cc(Cl)ccc2O)c1Sc1ccc(O)cc1	Not fulfilled
O=c1[nH]c2ccc(C(F)(F)F)cc2c(-c2cc(Cl)ccc2O)c1Sc1ccncc1	Fulfilled
Nc1ccc(Sc2c(-c3cc(Cl)ccc3O)c3cc(C(F)(F)F)ccc3[nH]c2=O)cc1	Not fulfilled
O=C(O)c1ccc(Sc2c(-c3cc(Cl)ccc3O)c3cc(C(F)(F)F)ccc3[nH]c2=O)cc1	Not fulfilled

Task item: Quick check: does "O=c1[nH]c2ccc(C(F)(F)F)cc2c(-c2cc(Cl)ccc2O)c1SCc1ccc(O)cc1" have inhibition greater than or equal to 30%?
Reply: Fulfilled

Task item: Quick check: does "Cn1c(=O)c(Sc2ccc(N)cc2)c(-c2cc(Cl)ccc2O)c2cc(C(F)(F)F)ccc21" have inhibition greater than or equal to 30%?
Reply: Not fulfilled

Task item: Quick check: does "Cn1cnnc1Sc1c(-c2cc(Cl)ccc2O)c2cc(C(F)(F)F)ccc2[nH]c1=O" have inhibition greater than or equal to 30%?
Reply: Fulfilled
